Molecular target: T1, human CD20 antigen (human, UniProt P11836 1-297)
T1 construct: whole, on cells; also called CD20/CHO cells; CD20 on Raji cells
T1 sequence (looked up): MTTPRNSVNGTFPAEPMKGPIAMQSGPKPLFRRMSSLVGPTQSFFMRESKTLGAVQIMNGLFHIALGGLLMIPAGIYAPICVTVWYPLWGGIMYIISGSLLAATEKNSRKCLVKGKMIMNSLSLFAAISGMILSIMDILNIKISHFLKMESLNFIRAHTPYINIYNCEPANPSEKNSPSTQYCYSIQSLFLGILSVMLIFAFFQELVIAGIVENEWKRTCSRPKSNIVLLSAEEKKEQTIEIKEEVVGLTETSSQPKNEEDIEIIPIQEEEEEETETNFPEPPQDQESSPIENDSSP
Test: CD20/CHO cell-ELISA, antibody at 3 ng/ml
In this section we review reported A492 values for a set of binders.

binder	A492 / A492
chimeric anti-CD20 monoclonal antibody c1K1736 (antibody, V domains shown, Murine variable regions fused to human immunoglobulin H chain and L chain (kappa) constant regions of vector pNOW-Ab) VH: QVQLQQPGAELVKPGASVKMSCKASGYTFTTYNLHWVKQTPGQGLEWIGGIYPGNGDTSYNQKFKVKATLTADKSSNTAYMQLSSLTSEDSAVYYCARWIYYGNYEGTLDYWGQGTSVTVSS VL: QIVLSQSPAILSSSPGEKVTMTCRASSSVSYMLWYQQKPGSSPEPWIYATSNLASGVPARFSGGGSGTSYSLTISRVEAEDAATYYCQQWTFNPPTFGGGTKLEIK	0.32
chimeric anti-CD20 monoclonal antibody c1K1712 (antibody, V domains shown, Murine variable regions fused to human immunoglobulin H chain and L chain (kappa) constant regions of vector pNOW-Ab) VH: QVQLQQPGAELVKPGASVKMSCKASGFTFTSYNLHWVKQTPGQGLEWIGAIYPGSGDTSYNQQFKGKATLTADKSSNTAYMQLNSLTSEDSAVYCCARSAMISTGNWYFDYWGQGTTLTVSS VL: QIVLSQSPAILSASPGEKVTMTCRASSSVSYMDWYQQKPGSSPKPWIYATSNLASGVPARFSGSGSGTSYSLTISRVEAEDTATYYCQQWTFNPPTFGSGTKLEIK	0.359
chimeric anti-CD20 monoclonal antibody c1K0924 (antibody, V domains shown, Murine variable regions fused to human immunoglobulin H chain and L chain (kappa) constant regions of vector pNOW-Ab) VH: QVQLQQPGAELVKPGASVKMSCKASGYTFTSYNIHWVKQTPGQGLEWIGAIYPGNGDTSYNQKFKGKATLTSDKSSSTAYMQLSSLTSEDSAVYYCARMSTMITGFDYWGQGTTLTVSS VL: QIVLSQSPAILSASPGEKVTMTCRASSSVSYMHWYQQRPGSSPKPWIYATSNLASGVPARFSGSGSGTSYYFTISRVEAEDAATYYCQQWNSNPPTHGGGTKLEIK	0.186
